Values were extracted from patent US20090143455A1.

systemName: purified human 15-lipoxygenase (Homo sapiens, UniProt P16050)
Sequence (P16050 1-662): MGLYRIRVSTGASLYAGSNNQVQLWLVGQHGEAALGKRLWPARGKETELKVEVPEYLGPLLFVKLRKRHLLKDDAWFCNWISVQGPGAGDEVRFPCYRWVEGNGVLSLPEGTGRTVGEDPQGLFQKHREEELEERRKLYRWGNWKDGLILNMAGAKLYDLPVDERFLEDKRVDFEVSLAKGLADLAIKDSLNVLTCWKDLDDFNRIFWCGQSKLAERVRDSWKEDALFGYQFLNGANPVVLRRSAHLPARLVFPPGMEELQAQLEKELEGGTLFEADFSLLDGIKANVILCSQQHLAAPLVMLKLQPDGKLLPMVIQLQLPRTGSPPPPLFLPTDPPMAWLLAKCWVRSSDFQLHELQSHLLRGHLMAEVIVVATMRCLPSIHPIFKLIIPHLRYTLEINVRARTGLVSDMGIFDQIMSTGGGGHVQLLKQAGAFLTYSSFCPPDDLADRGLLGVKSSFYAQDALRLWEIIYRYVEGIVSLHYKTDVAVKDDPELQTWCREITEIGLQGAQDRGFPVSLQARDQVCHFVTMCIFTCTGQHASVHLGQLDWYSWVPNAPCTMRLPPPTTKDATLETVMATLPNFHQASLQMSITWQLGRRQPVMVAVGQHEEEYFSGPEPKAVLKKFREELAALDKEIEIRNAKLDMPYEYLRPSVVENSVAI
Could you please report measured IC50 for the items listed next?

Given `O=C(Nc1ccc(F)cc1)c1cc(Cl)[nH]n1` , state its recorded IC50. 182 nM

# lookup: IC50 of `O=C(Nc1ccc(F)cc1F)c1cc(Cl)[nH]n1` 265 nM

Give its IC50 value. Item: `O=C(Nc1ccc(Cl)cc1)c1cc(Cl)[nH]n1` 78 nM

Return reported IC50; argument: `O=C(Nc1ccccc1OC(F)F)c1cc(Cl)[nH]n1` 69 nM
